Target: T1, TTD–PHD of UHRF1 (residues 134–366) (human, UniProt Q96T88 134-366)
T1 chain: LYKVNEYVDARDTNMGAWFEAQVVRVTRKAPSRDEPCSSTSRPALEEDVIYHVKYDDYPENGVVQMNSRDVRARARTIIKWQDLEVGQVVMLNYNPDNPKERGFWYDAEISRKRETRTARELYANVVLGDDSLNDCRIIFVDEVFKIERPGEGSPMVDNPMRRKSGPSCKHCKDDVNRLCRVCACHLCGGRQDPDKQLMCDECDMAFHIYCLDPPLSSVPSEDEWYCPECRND
Assay: ITC; in presence of Spacer (1:2)
Measure name: Kd (µM)
Provide only the numeric value, understood in µM.

-- ask What does the record list as Kd for ARTKQTARKSTGGKAPR (trimethyl-lysine at K9) [H3K9me3 peptide (1–17)] ?
-- reply 1.63
